Test system: Rattus norvegicus
Assay: Antiinflammatory activity in albino rat assessed as inhibition of carrageenan-induced paw edema at 100 mg/kg, po administered 30 mins prior to carrageenan challenge measured after 3 hrs
Assay type: functional
recorded-metric: inhibition in vivo at 100 mg/kg
A bare number is not enough; add the unit after it.

Task: Check Rattus norvegicus data and give inhibition in vivo at 100 mg/kg for O=C(c1ccccc1)c1c(C(=O)N2CCNCC2)nn(-c2ccccc2)c1-c1ccccc1 .
Output: 28.6%

Task: Check Rattus norvegicus data and give inhibition in vivo at 100 mg/kg for Cc1ccc(NC(=O)c2nn(-c3ccccc3)c(-c3ccccc3)c2C(=O)c2ccccc2)cc1 .
Output: 28.3%

Task: Check Rattus norvegicus data and give inhibition in vivo at 100 mg/kg for COc1ccc(NC(=O)c2nn(-c3ccccc3)c(-c3ccccc3)c2C(=O)c2ccccc2)cc1 .
Output: 28.3%

Task: Check Rattus norvegicus data and give inhibition in vivo at 100 mg/kg for O=C(Nc1ccc(Cl)cc1)c1nn(-c2ccccc2)c(-c2ccccc2)c1/C(=N/O)c1ccccc1 .
Output: 47.6%

Task: Check Rattus norvegicus data and give inhibition in vivo at 100 mg/kg for C/C(=N\O)c1ccc(NC(=O)c2nn(-c3ccccc3)c(-c3ccccc3)c2C(=O)c2ccccc2)cc1 .
Output: 33.3%

Task: Check Rattus norvegicus data and give inhibition in vivo at 100 mg/kg for O=C(O)c1ccc(NC(=O)c2nn(-c3ccccc3)c(-c3ccccc3)c2C(=O)c2ccccc2)cc1 .
Output: 27%

Task: Check Rattus norvegicus data and give inhibition in vivo at 100 mg/kg for O=C(Nc1ccc(S(=O)(=O)Nc2ncccn2)cc1)c1nn(-c2ccccc2)c(-c2ccccc2)c1C(=O)c1ccccc1 .
Output: 25%

Task: Check Rattus norvegicus data and give inhibition in vivo at 100 mg/kg for O=C(OCCO[N+](=O)[O-])c1nn(-c2ccccc2)c(-c2ccccc2)c1C(=O)c1ccccc1 .
Output: 47.6%

###

Tested on: Staphylococcus aureus
Test: Antibacterial activity against Staphylococcus aureus NCTC 6571 after 24 hrs by agar cup diffusion method
Format: functional
Details: NCTC 6571, 24 h
Exercise: state measured MIC for each of the compounds provided.
Provide the reading as a plain figure in µg/mL.

Task: Check Staphylococcus aureus data and give MIC for O=C(Nc1ccc(Cl)cc1)c1nn(-c2ccccc2)c(-c2ccccc2)c1/C(=N/O)c1ccccc1 .
Output: 90.4

Task: Check Staphylococcus aureus data and give MIC for O=C(O)c1ccc(NC(=O)c2nn(-c3ccccc3)c(-c3ccccc3)c2/C(=N/O)c2ccccc2)cc1 .
Output: 50.5

Task: Check Staphylococcus aureus data and give MIC for O=C(O)c1cn(C2CC2)c2cc(N3CCNCC3)c(F)cc2c1=O .
Output: 52.4

Task: Check Staphylococcus aureus data and give MIC for O=C(O)c1ccc(NC(=O)c2nn(-c3ccccc3)c(-c3ccccc3)c2C(=O)c2ccccc2)cc1 .
Output: 64

###

Test system: Rattus norvegicus
Test: Antiinflammatory activity in albino rat assessed as inhibition of carrageenan-induced paw edema at 100 mg/kg, po administered 30 mins prior to carrageenan challenge measured after 3 hrs
Format: functional
Label Met for high-side inhibition in vivo at 100 mg/kg (at or above 40%) and Not met for low-side inhibition in vivo at 100 mg/kg (below it).

Task: Given COc1ccc(NC(=O)c2nn(-c3ccccc3)c(-c3ccccc3)c2/C(=N/O)c2ccccc2)cc1 , state whether its inhibition in vivo at 100 mg/kg is at least 40%.
Output: Not met

Task: Given CC(=O)c1ccc(NC(=O)c2nn(-c3ccccc3)c(-c3ccccc3)c2C(=O)c2ccccc2)cc1 , state whether its inhibition in vivo at 100 mg/kg is at least 40%.
Output: Met

Task: Given O=C(OCCBr)c1nn(-c2ccccc2)c(-c2ccccc2)c1C(=O)c1ccccc1 , state whether its inhibition in vivo at 100 mg/kg is at least 40%.
Output: Not met

Task: Given O=C(Nc1ccc(S(=O)(=O)Nc2ncccn2)cc1)c1nn(-c2ccccc2)c(-c2ccccc2)c1/C(=N/O)c1ccccc1 , state whether its inhibition in vivo at 100 mg/kg is at least 40%.
Output: Not met

Task: Given O=C(O)c1nn(-c2ccccc2)c(-c2ccccc2)c1C(=O)c1ccccc1 , state whether its inhibition in vivo at 100 mg/kg is at least 40%.
Output: Not met

Task: Given Cc1ccc(NC(=O)c2nn(-c3ccccc3)c(-c3ccccc3)c2/C(=N/O)c2ccccc2)cc1 , state whether its inhibition in vivo at 100 mg/kg is at least 40%.
Output: Not met

Task: Given O=C(c1ccccc1)c1c(C(=O)N2CCN(C(=O)CO[N+](=O)[O-])CC2)nn(-c2ccccc2)c1-c1ccccc1 , state whether its inhibition in vivo at 100 mg/kg is at least 40%.
Output: Met

Task: Given O=C(OCCO)c1nn(-c2ccccc2)c(-c2ccccc2)c1C(=O)c1ccccc1 , state whether its inhibition in vivo at 100 mg/kg is at least 40%.
Output: Met

Task: Given O=C(Nc1ccc(Cl)cc1)c1nn(-c2ccccc2)c(-c2ccccc2)c1C(=O)c1ccccc1 , state whether its inhibition in vivo at 100 mg/kg is at least 40%.
Output: Not met

Task: Given O=C(O)c1ccc(NC(=O)c2nn(-c3ccccc3)c(-c3ccccc3)c2/C(=N/O)c2ccccc2)cc1 , state whether its inhibition in vivo at 100 mg/kg is at least 40%.
Output: Met
